biological target: FGFR-1 (Homo sapiens); construct: GST; made in house; assay: FGFR-1 TR-FRET biochemical assay; settings: 0.6 uM ATP, 5 nM FGFR1-GST; bounds given in nM
// reported IC50 per item

# count of solved cases: 3
# structure_smiles_string, result
data = [
    ("Nc1ncnn2c(CCN3CCOCC3)cc(-c3cc(F)c(NC(=O)Nc4cc(C(F)(F)F)ccc4F)cc3F)c12", "10 to 100 nM"),
    ("Nc1ncnn2c(C3CCN(C(=O)C(F)(F)F)CC3)cc(-c3ccc(NC(=O)Nc4cc(C(F)(F)F)ccc4F)c(F)c3)c12", "> 100 nM"),
    ("COc1cc(-c2cc(CN3CCOCC3)n3ncnc(N)c23)ccc1NC(=O)Nc1cc(C(F)(F)F)ccn1", "10 to 100 nM"),
]

Now, please, on to the next molecule.
Prompt: Requested field: IC50. Item: Cc1cc(-c2cc(CN3CCOCC3)n3ncnc(N)c23)ccc1NC(=O)Nc1ccc(F)c(C(F)(F)F)c1
Completion: < 10 nM

* * *

biological target: FGFR-1 (Homo sapiens); construct: GST; made in house; experiment: FGFR-1 TR-FRET biochemical assay; conditions: 0.6 uM ATP, 5 nM FGFR1-GST; bounds given in nM
recorded_endpoint: IC50

# compound, result
data = [
    ("Nc1ncnn2c(C3CCNCC3)cc(-c3ccc(NC(=O)Nc4cc(C(F)(F)F)ccc4F)c(F)c3)c12 [Example 111]", "< 10 nM"),
    ("CN1CCN(C(=O)c2cc(-c3ccc(NC(=O)Nc4cc(C(F)(F)F)ccc4F)c(F)c3)c3c(N)ncnn23)CC1 [Example 161]", "< 10 nM"),
    ("Nc1ncnn2c(C(=O)NCC3CNCCO3)cc(-c3ccc(NC(=O)Nc4cc(C(F)(F)F)ccc4F)c(F)c3)c12 (stereo not shown) [Example 283]", "10 to 100 nM"),
    ("Cc1cc(-c2cc(CN3CCCOCC3)n3ncnc(N)c23)ccc1NC(=O)Nc1cc(C(F)(F)F)ccn1 [Example 180]", "< 10 nM"),
    ("Nc1ncnn2c(CN3CCOCC3)cc(-c3ccc(NC(=O)Nc4cccc(C(F)(F)F)c4)nc3)c12 [Example 20]", "< 10 nM"),
]

Prompt: Need IC50, item Cc1ccc(F)c(NC(=O)Nc2cc(F)c(-c3cc(CN4CCOCC4)n4ncnc(N)c34)cc2F)c1 [Example 145]
Completion: 10 to 100 nM

Prompt: Need IC50 of Nc1ncnn2c(CCO)cc(-c3ccc(NC(=O)Nc4cc(C(F)(F)F)ccc4F)c(F)c3)c12 [Example 220] , thanks.
Completion: < 10 nM

* * *

biological target: FGFR-1 (Homo sapiens, UniProt P11362); construct: GST; made in house; experiment: FGFR-1 TR-FRET biochemical assay; conditions: 0.6 uM ATP, 5 nM FGFR1-GST; bounds given in nM
Sequence (P11362 22-822): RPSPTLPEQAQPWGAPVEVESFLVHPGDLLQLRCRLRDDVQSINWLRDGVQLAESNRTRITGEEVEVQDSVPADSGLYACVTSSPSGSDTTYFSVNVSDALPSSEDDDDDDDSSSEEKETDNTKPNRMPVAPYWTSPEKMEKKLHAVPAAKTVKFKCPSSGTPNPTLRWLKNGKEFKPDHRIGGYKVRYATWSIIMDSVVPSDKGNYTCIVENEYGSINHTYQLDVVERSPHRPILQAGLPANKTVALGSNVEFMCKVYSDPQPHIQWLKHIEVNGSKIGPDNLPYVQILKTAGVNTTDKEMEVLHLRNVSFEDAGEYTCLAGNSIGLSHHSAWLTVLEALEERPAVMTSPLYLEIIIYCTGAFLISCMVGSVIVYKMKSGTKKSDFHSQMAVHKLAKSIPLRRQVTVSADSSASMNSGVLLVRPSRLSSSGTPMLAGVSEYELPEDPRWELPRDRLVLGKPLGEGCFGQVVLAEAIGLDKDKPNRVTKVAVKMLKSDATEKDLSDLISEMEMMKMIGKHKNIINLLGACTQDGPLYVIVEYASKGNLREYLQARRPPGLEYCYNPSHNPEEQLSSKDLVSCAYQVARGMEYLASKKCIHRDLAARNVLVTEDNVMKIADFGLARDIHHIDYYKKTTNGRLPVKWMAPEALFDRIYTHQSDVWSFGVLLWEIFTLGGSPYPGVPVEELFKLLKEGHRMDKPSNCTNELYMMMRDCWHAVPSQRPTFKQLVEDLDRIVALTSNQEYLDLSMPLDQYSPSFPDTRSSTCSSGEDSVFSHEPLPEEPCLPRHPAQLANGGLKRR
In this section, each of the molecules is paired with its reported IC50.

# molecule, IC50
rows = [
    ("Nc1ncnn2c(CN3CCNC(=O)C3)cc(-c3cc(F)c(NC(=O)Nc4cc(C(F)(F)F)ccc4F)cc3F)c12", "< 10 nM"),
    ("Cc1cc(NC(=O)Nc2cc(C(F)(F)F)ccc2F)c(F)cc1-c1cc(CN2CCOCC2)n2ncnc(N)c12", "10 to 100 nM"),
]

Prompt: What measured IC50 is associated with Nc1ncnn2c(CN3CCS(=O)(=O)CC3)cc(-c3ccc(NC(=O)Nc4cccc(C(F)(F)F)c4)c(F)c3)c12 on FGFR-1 (Homo sapiens, UniProt P11362)?
Completion: < 10 nM

Prompt: Param readout= IC50; system= FGFR-1 (Homo sapiens, UniProt P11362); entry= CCS(=O)(=O)N1CCN(Cc2cc(-c3ccc(NC(=O)Nc4cc(C(F)(F)F)ccc4F)cc3)c3c(N)ncnn23)CC1 ; returns value.
Completion: 10 to 100 nM

Prompt: GET /values?readout=IC50&system=FGFR-1 (Homo sapiens, UniProt P11362)&item= Nc1ncnn2c(C3CCN(C(=O)CO)C3)cc(-c3ccc(NC(=O)Nc4cc(C(F)(F)F)ccc4F)c(F)c3)c12 (stereo not shown)
Completion: < 10 nM

Prompt: Can you look up IC50 on FGFR-1 (Homo sapiens, UniProt P11362) for Nc1ncnn2c(C3CCN(CC(O)CO)CC3)cc(-c3ccc(NC(=O)Nc4cc(C(F)(F)F)ccc4F)c(F)c3)c12 (stereo not shown) ?
Completion: < 10 nM

Prompt: Provide the documented IC50 with FGFR-1 (Homo sapiens, UniProt P11362) as the system for COC[C@@H]1CCCN1CCCc1cc(-c2ccc(NC(=O)Nc3cc(C(F)(F)F)ccc3F)c(F)c2)c2c(N)ncnn12
Completion: < 10 nM
